# Tested on: apyrase
# ASSAY_PROCEDURE: Screen for apyrase inhibitors (Method 1, in vitro phosphate-release absorbance assay)
# Type: biochemical
# CONDITIONS: inhibitor conc at 1 mM stock, 1 hr room temperature, absorbance 630 nm; rounded average of two assay results
MEASUREMENT_LABEL: % Inhibition of Apyrase (%)

Below, 7 molecules whose answers are already recorded.
{"MOLECULE": "N#Cc1cccc(NC(=O)c2cccc(S(=O)(=O)Nc3ccc(Br)cc3)c2)c1 [I-16]", "% Inhibition of Apyrase, %": 54}
{"MOLECULE": "NC(=O)OCCNC(=O)c1cccc(S(=O)(=O)Nc2ccc(Br)cc2)c1 [I-17]", "% Inhibition of Apyrase, %": 52}
{"MOLECULE": "O=C(Nc1nnc[nH]1)c1cccc(NS(=O)(=O)c2ccc(Br)cc2)c1 [I-672]", "% Inhibition of Apyrase, %": 1}
{"MOLECULE": "O=C(Nc1ccc(OC(F)F)cc1)c1ccccc1S(=O)(=O)Nc1cccc(C(F)(F)F)c1 [I-224]", "% Inhibition of Apyrase, %": 67}
{"MOLECULE": "O=C(c1cccc(S(=O)(=O)Nc2ccc3c(c2)OCO3)c1)N1CCc2ccccc21 [I-188]", "% Inhibition of Apyrase, %": 73}
{"MOLECULE": "COc1ncccc1C(=O)Nc1cccc(S(=O)(=O)Nc2ccc(Cl)cc2)c1 [I-733]", "% Inhibition of Apyrase, %": 54}
{"MOLECULE": "N#Cc1cccc(NC(=O)c2ccc(NS(=O)(=O)c3ccc4c(c3)OCCO4)cc2)c1 [I-962]", "% Inhibition of Apyrase, %": 11}

A. O=C(Nc1ccc2[nH]c(=O)[nH]c2c1)c1cccc(S(=O)(=O)N2CCc3ccccc32)c1 [I-598]
B. N#Cc1ccc(NC(=O)c2cccc(S(=O)(=O)Nc3ccc4c(c3)OCO4)c2)cc1 [I-187]
Q. Which is greater in % Inhibition of Apyrase, the first item A or the second item B ? Identify your selection by its label.
A. B
(B: 67%, A: 31%)

----------
# Tested on: apyrase
# ASSAY_PROCEDURE: Screen for apyrase inhibitors (Method 1, in vitro phosphate-release absorbance assay)
# Format: biochemical
# CONDITIONS: inhibitor conc at 1 mM stock, 1 hr room temperature, absorbance 630 nm; rounded average of two assay results
MEASUREMENT_LABEL: % Inhibition of Apyrase (%)

The examples below pair each entry with its known result.
{"STRUCTURE_NOTATION": "COc1ccc(C(=O)Nc2cccc(Cl)c2)cc1S(=O)(=O)Nc1ccc(Br)cc1", "% Inhibition of Apyrase (%)": 55}
{"STRUCTURE_NOTATION": "Cc1ccc(NC(=O)c2ccc(NS(=O)(=O)c3ccc(F)cc3)cc2)cc1C", "% Inhibition of Apyrase (%)": 58}

1. Cc1cccc(NC(=O)c2ccc(NS(=O)(=O)c3ccc(Br)cc3)cc2)c1
2. Cn1cc(C(=O)Nc2cccc(S(=O)(=O)Nc3ccc(Br)cc3)c2)cn1
3. O=C(Nc1ccc(Br)cc1)c1cccc(S(=O)(=O)Nc2ccc3c(c2)OCO3)c1
Q. // ranking: key=% Inhibition of Apyrase, reverse=True A complete answer lists every label in the requested sequence.
A. 3, 1, 2
(3: 77%, 1: 52%, 2: 30%)

----------
# System: apyrase
# ASSAY_PROCEDURE: Screen for apyrase inhibitors (Method 1, in vitro phosphate-release absorbance assay)
# Format: biochemical
# CONDITIONS: inhibitor conc at 1 mM stock, 1 hr room temperature, absorbance 630 nm; rounded average of two assay results
# Protocol: Apyrase inhibitors useful as enhancers of pesticidal activity are assessed using an in vitro assay. […]
MEASUREMENT_LABEL: % Inhibition of Apyrase (%)

1. Cc1cc(S(=O)(=O)Nc2ccc(C(=O)N3c4ccccc4CC3C)cc2)ccc1F (stereo not drawn)
2. O=C(Nc1ccc(N2CCOCC2)cc1)c1cccc(S(=O)(=O)Nc2ccc3c(c2)OCO3)c1
Q. Compare reported % Inhibition of Apyrase values for 1 and 2 . Which is lower? When you have decided, please share the label of that item.
A. 2
(2: 29%, 1: 60%)

1. O=C(Nc1ccc2c(c1)OCCO2)c1ccc(Cl)c(S(=O)(=O)N2CCc3ccccc32)c1
2. O=C(NCCCN1CCCC1=O)c1cccc(S(=O)(=O)Nc2ccc(Br)cc2)c1
3. O=C(Nc1cccc([N+](=O)[O-])c1)c1cccc(S(=O)(=O)Nc2ccc(F)cc2)c1
Q. Place the items in sequence of falling % Inhibition of Apyrase. Answer format: list of labels, ordered as asked.
A. 1, 3, 2

1. O=C(Nc1ccc(F)cc1)c1cccc(S(=O)(=O)Nc2ccc3c(c2)OCO3)c1
2. CCOc1ccc(Br)cc1S(=O)(=O)Nc1ccc(NC(=O)c2ccccc2F)cc1
Q. Would you kindly point out which of 1 and 2 has the smaller % Inhibition of Apyrase figure? Write the label of whichever entry you select.
A. 2
(2: 46%, 1: 71%)

Cited source for all entries: patent US12685312B2
